# experiment.notes: Fluorescence excitation and emission spectra in DMF
# Assay type: physicochemical
endpoint.name: λEm (emission maximum) (nm)
Unit nm implied. Number only.

- molecule: "C#CCOCc1cc(C)cc(COCC#C)c1Oc1cc2c(cc1Oc1c(COCC#C)cc(C)cc1COCC#C)C1=Nc3c4cc(Oc5c(COCC#C)cc(C)cc5COCC#C)c(Oc5c(COCC#C)cc(C)cc5COCC#C)cc4c4[n]3[Zn][n]3c(c5cc(Oc6c(COCC#C)cc(C)cc6COCC#C)c(Oc6c(COCC#C)cc(C)cc6COCC#C)cc5c3=NC3=NC(=N4)c4cc(Oc5c(COCC#C)cc(C)cc5COCC#C)c(Oc5c(COCC#C)cc(C)cc5COCC#C)cc43)=NC2=N1"
  λEm (emission maximum) [nm]: 683

Lab book: λEm (emission maximum) of `C#CCOCc1cc(C)cc(COCC#C)c1Oc1ccc2c(c1)C1=NC2=Nc2c3cc(Oc4c(COCC#C)cc(C)cc4COCC#C)ccc3c3[n]2[Zn][n]2c(c4ccc(Oc5c(COCC#C)cc(C)cc5COCC#C)cc4c2=NC2=NC(=N3)c3cc(Oc4c(COCC#C)cc(C)cc4COCC#C)ccc32)=N1` noted as 688

Lab book: λEm (emission maximum) of `C#CCOCc1cc(C)cc(COCC#C)c1Oc1nc2c(nc1Oc1c(COCC#C)cc(C)cc1COCC#C)C1=Nc3c4nc(Oc5c(COCC#C)cc(C)cc5COCC#C)c(Oc5c(COCC#C)cc(C)cc5COCC#C)nc4c4[n]3[Zn][n]3c(c5nc(Oc6c(COCC#C)cc(C)cc6COCC#C)c(Oc6c(COCC#C)cc(C)cc6COCC#C)nc5c3=NC3=NC(=N4)c4nc(Oc5c(COCC#C)cc(C)cc5COCC#C)c(Oc5c(COCC#C)cc(C)cc5COCC#C)nc43)=NC2=N1` noted as 639

====

# experiment.notes: Fluorescence excitation and emission spectra in DMF
# Type: physicochemical
# measurement.parameters: difference between excitation and emission maxima
endpoint.name: Stokes shift ΔStokes (nm)

- molecule: "C#CCOCc1cc(C)cc(COCC#C)c1Oc1ccc2c(c1)C1=NC2=Nc2c3cc(Oc4c(COCC#C)cc(C)cc4COCC#C)ccc3c3[n]2[Zn][n]2c(c4ccc(Oc5c(COCC#C)cc(C)cc5COCC#C)cc4c2=NC2=NC(=N3)c3cc(Oc4c(COCC#C)cc(C)cc4COCC#C)ccc32)=N1 [Pc4]"
  Stokes shift ΔStokes, nm: 6
- molecule: "[Zn+2].c1ccc2c(c1)-c1nc-2nc2[n-]c(nc3nc([n-]c4nc(n1)-c1ccccc1-4)-c1ccccc1-3)c1ccccc21 [Std-ZnPc, zinc(II) phthalocyanine, reference compound]"
  Stokes shift ΔStokes, nm: 6

====

# experiment.notes: Ground state electronic absorption spectra (UV-Vis) in DMF
# Type: physicochemical
# measurement.parameters: in DMF
# Procedure: Electronic absorption, which is measured by UV-Vis spectroscopy, is one of the best spectroscopic techniques for determination of Pc formation and characterization of Pc compounds. Generally, two absorption bands are observed for Pc structures in their electronic absorption spectra. […] The ground state electronic absorption spectra of the studied novel Pcs were measured in DMF solution. […]
endpoint.name: log ε at λmax

- compound: "C#CCOCc1cc(C)cc(COCC#C)c1Oc1ccc2c(c1)C1=NC2=Nc2c3cc(Oc4c(COCC#C)cc(C)cc4COCC#C)ccc3c3[n]2[Zn][n]2c(c4ccc(Oc5c(COCC#C)cc(C)cc5COCC#C)cc4c2=NC2=NC(=N3)c3cc(Oc4c(COCC#C)cc(C)cc4COCC#C)ccc32)=N1 [Pc4]"
  endpoint.name: "log ε at λmax"
  endpoint.value: 5.21
- compound: "C#CCOCc1cc(C)cc(COCC#C)c1Oc1cc2c(cc1Cl)C1=Nc3c4cc(Oc5c(COCC#C)cc(C)cc5COCC#C)c(Cl)cc4c4[n]3[Zn][n]3c(c5cc(Cl)c(Oc6c(COCC#C)cc(C)cc6COCC#C)cc5c3=NC3=NC(=N4)c4cc(Oc5c(COCC#C)cc(C)cc5COCC#C)c(Cl)cc43)=NC2=N1 [Pc3]"
  endpoint.name: "log ε at λmax"
  endpoint.value: 5.33
- compound: "C#CCOCc1cc(C)cc(COCC#C)c1Oc1nc2c(nc1Oc1c(COCC#C)cc(C)cc1COCC#C)C1=Nc3c4nc(Oc5c(COCC#C)cc(C)cc5COCC#C)c(Oc5c(COCC#C)cc(C)cc5COCC#C)nc4c4[n]3[Zn][n]3c(c5nc(Oc6c(COCC#C)cc(C)cc6COCC#C)c(Oc6c(COCC#C)cc(C)cc6COCC#C)nc5c3=NC3=NC(=N4)c4nc(Oc5c(COCC#C)cc(C)cc5COCC#C)c(Oc5c(COCC#C)cc(C)cc5COCC#C)nc43)=NC2=N1 [AzaPc1]"
  endpoint.name: "log ε at λmax"
  endpoint.value: 5.07
- compound: "[Zn+2].c1ccc2c(c1)-c1nc-2nc2[n-]c(nc3nc([n-]c4nc(n1)-c1ccccc1-4)-c1ccccc1-3)c1ccccc21 [Std-ZnPc, zinc(II) phthalocyanine, reference compound]"
  endpoint.name: "log ε at λmax"
  endpoint.value: 5.37
- compound: "C#CCOCc1cc(C)cc(COCC#C)c1Oc1cc2c(cc1Oc1c(COCC#C)cc(C)cc1COCC#C)C1=Nc3c4cc(Oc5c(COCC#C)cc(C)cc5COCC#C)c(Oc5c(COCC#C)cc(C)cc5COCC#C)cc4c4[n]3[Zn][n]3c(c5cc(Oc6c(COCC#C)cc(C)cc6COCC#C)c(Oc6c(COCC#C)cc(C)cc6COCC#C)cc5c3=NC3=NC(=N4)c4cc(Oc5c(COCC#C)cc(C)cc5COCC#C)c(Oc5c(COCC#C)cc(C)cc5COCC#C)cc43)=NC2=N1 [Pc2]"
  endpoint.name: "log ε at λmax"
  endpoint.value: 5.33
